Sequence of the target: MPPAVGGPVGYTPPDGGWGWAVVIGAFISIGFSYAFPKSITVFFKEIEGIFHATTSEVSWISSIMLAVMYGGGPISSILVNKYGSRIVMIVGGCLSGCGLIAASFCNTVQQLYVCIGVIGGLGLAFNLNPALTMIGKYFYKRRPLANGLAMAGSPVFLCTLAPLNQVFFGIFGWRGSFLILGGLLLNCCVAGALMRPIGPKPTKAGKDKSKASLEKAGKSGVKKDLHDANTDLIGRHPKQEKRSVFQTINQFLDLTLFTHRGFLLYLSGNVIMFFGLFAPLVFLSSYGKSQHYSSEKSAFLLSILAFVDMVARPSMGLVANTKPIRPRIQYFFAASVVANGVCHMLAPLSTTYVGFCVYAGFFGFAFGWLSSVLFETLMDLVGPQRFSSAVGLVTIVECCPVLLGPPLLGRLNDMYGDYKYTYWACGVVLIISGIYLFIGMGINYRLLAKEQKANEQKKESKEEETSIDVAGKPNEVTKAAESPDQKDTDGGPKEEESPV
pKi: −log10 of the molar value.
ASSAY ENDPOINT: pKi

For record CC(C)(OCc1nn(Cc2ccccc2)c2ccccc12)C(=O)O the listed pKi is < 3.30

---

Reported pKi values, Carbonic anhydrase 2 (Homo sapiens).
pKi: −log10 of the molar value.

CC(=O)c1ccc(-c2cc3ccccc3oc2=O)nc1C    < 4.00

Your task in this section: give pKi for each listed record.
1. CC(C)(O)[C@@H](O)COc1c2occc2cc2ccc(=O)oc12
2. O=C(CN1C(=O)CSC1=O)c1cc2ccccc2oc1=O
3. Cc1nc(-c2cc3ccccc3oc2=O)ccc1C(=O)/C=C/c1ccccc1

1. < 5.00
2. < 4.00
3. < 4.00

Your task in this section: give pKi for each listed record.
1. COc1ccc(CSc2nnc(COc3ccc4c(C)cc(=O)oc4c3)o2)cc1
2. Cc1cc(=O)oc2cc(OCCCCCNc3nc4cc(-c5ccccc5)ccc4o3)ccc12

1. < 5.00
2. < 5.00

---

Target: Monocarboxylate transporter 1 (Homo sapiens)
ASSAY ENDPOINT: pIC50
One number for each entry, as −log10 of the molar value.

Value sought: pIC50, system Monocarboxylate transporter 1 (Homo sapiens), item O=C(Nc1ccccc1C(=O)O)c1cc(S(=O)(=O)c2ccccc2)ccc1Cl . Result: 7.07

---

Target: UniProt:Q16790
ASSAY ENDPOINT: Ki (nM)
Give bare numbers, in nM.

For record NS(=O)(=O)c1ccc(N=C2C(=O)Nc3ccccc32)cc1 the listed Ki is 6.5

---

Biological target: UniProt O15427
Sequence (O15427 whole entry): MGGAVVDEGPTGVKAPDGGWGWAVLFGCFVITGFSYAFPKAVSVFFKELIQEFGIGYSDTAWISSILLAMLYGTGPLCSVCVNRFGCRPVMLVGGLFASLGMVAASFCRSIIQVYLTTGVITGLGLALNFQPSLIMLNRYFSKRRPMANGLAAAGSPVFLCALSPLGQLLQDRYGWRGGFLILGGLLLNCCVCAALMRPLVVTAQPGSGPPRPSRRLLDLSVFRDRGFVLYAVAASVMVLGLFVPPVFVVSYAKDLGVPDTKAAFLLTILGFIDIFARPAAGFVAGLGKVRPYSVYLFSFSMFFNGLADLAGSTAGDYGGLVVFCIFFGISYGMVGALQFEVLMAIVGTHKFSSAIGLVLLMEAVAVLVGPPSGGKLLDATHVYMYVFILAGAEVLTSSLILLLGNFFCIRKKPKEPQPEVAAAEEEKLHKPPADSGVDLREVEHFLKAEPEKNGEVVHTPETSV
ASSAY ENDPOINT: IC50 (nM)
Give bare numbers, in nM.

For record CCOC(=O)Oc1c(OC)cc(C(=O)O[C@@H]2C[C@@H]3CN4CCc5c([nH]c6cc(OC)ccc56)[C@H]4C[C@@H]3[C@H](C(=O)OC)[C@H]2OC)cc1OC the listed IC50 is 40

---

Biological target: Carbonic anhydrase 2 (Homo sapiens, UniProt P00918)
ASSAY ENDPOINT: Ki (µM)
Numbers only, in µM.

For record NS(=O)(=O)c1ccc(NCC(=O)N/N=C2\C(=O)N(Cc3ccccc3)c3ccccc32)cc1 the listed Ki is 0.204
